- CONDITION: in 1,4-dioxane, 308.15 K
OBSERVABLE: solubility (mole fraction)
Could you keep your reply to the number by itself?

Summary for this compound, CC1(C)[C@@H](O)CC[C@]2(C)[C@H]3C(=O)C=C4[C@@H]5C[C@@](C)(C(=O)O)CC[C@]5(C)CC[C@@]4(C)[C@]3(C)CC[C@@H]12 : solubility (mole fraction) is 0.0327

----------
- CONDITION: in methyl acetate, 308.15 K
OBSERVABLE: solubility (mole fraction)
Could you keep your reply to the number by itself?

Summary for this compound, CC1(C)[C@@H](O)CC[C@]2(C)[C@H]3C(=O)C=C4[C@@H]5C[C@@](C)(C(=O)O)CC[C@]5(C)CC[C@@]4(C)[C@]3(C)CC[C@@H]12 : solubility (mole fraction) is 0.0027

----------
- CONDITION: in ethanol, 313.15 K
OBSERVABLE: solubility (mole fraction)

Summary for this compound, CC1(C)[C@@H](O)CC[C@]2(C)[C@H]3C(=O)C=C4[C@@H]5C[C@@](C)(C(=O)O)CC[C@]5(C)CC[C@@]4(C)[C@]3(C)CC[C@@H]12 : solubility (mole fraction) is 0.0152

----------
- CONDITION: in n-propyl acetate, 313.15 K
OBSERVABLE: solubility (mole fraction)
Could you keep your reply to the number by itself?

Summary for this compound, CC1(C)[C@@H](O)CC[C@]2(C)[C@H]3C(=O)C=C4[C@@H]5C[C@@](C)(C(=O)O)CC[C@]5(C)CC[C@@]4(C)[C@]3(C)CC[C@@H]12 : solubility (mole fraction) is 0.00273

----------
- CONDITION: in isobutyl acetate, 283.15 K
OBSERVABLE: solubility (mole fraction)

Summary for this compound, CC1(C)[C@@H](O)CC[C@]2(C)[C@H]3C(=O)C=C4[C@@H]5C[C@@](C)(C(=O)O)CC[C@]5(C)CC[C@@]4(C)[C@]3(C)CC[C@@H]12 : solubility (mole fraction) is 0.00232

----------
- CONDITION: in acetone, 323.15 K
OBSERVABLE: solubility (mole fraction)
Could you keep your reply to the number by itself?

Summary for this compound, CC1(C)[C@@H](O)CC[C@]2(C)[C@H]3C(=O)C=C4[C@@H]5C[C@@](C)(C(=O)O)CC[C@]5(C)CC[C@@]4(C)[C@]3(C)CC[C@@H]12 : solubility (mole fraction) is 0.00598

----------
- CONDITION: in methanol, 288.65 K
OBSERVABLE: solubility (mole fraction)
Could you keep your reply to the number by itself?

Summary for this compound, CC1(C)[C@@H](O)CC[C@]2(C)[C@H]3C(=O)C=C4[C@@H]5C[C@@](C)(C(=O)O)CC[C@]5(C)CC[C@@]4(C)[C@]3(C)CC[C@@H]12 : solubility (mole fraction) is 0.00295

----------
- CONDITION: in methyl acetate, 293.15 K
OBSERVABLE: solubility (mole fraction)

Summary for this compound, CC1(C)[C@@H](O)CC[C@]2(C)[C@H]3C(=O)C=C4[C@@H]5C[C@@](C)(C(=O)O)CC[C@]5(C)CC[C@@]4(C)[C@]3(C)CC[C@@H]12 : solubility (mole fraction) is 0.00227

----------
- CONDITION: in ethanol, 323.15 K
OBSERVABLE: solubility (mole fraction)
Could you keep your reply to the number by itself?

Summary for this molecule, CC1(C)[C@@H](O)CC[C@]2(C)[C@H]3C(=O)C=C4[C@@H]5C[C@@](C)(C(=O)O)CC[C@]5(C)CC[C@@]4(C)[C@]3(C)CC[C@@H]12 : solubility (mole fraction) is 0.0168

----------
- CONDITION: in n-propanol, 298.15 K
OBSERVABLE: solubility (mole fraction)
Could you keep your reply to the number by itself?

Summary for this compound, CC1(C)[C@@H](O)CC[C@]2(C)[C@H]3C(=O)C=C4[C@@H]5C[C@@](C)(C(=O)O)CC[C@]5(C)CC[C@@]4(C)[C@]3(C)CC[C@@H]12 : solubility (mole fraction) is 0.0186

----------
- CONDITION: in n-propyl acetate, 278.15 K
OBSERVABLE: solubility (mole fraction)

Summary for this compound, CC1(C)[C@@H](O)CC[C@]2(C)[C@H]3C(=O)C=C4[C@@H]5C[C@@](C)(C(=O)O)CC[C@]5(C)CC[C@@]4(C)[C@]3(C)CC[C@@H]12 : solubility (mole fraction) is 0.00157

----------
- CONDITION: in isopropanol, 288.65 K
OBSERVABLE: solubility (mole fraction)
Could you keep your reply to the number by itself?

Summary for this molecule, CC1(C)[C@@H](O)CC[C@]2(C)[C@H]3C(=O)C=C4[C@@H]5C[C@@](C)(C(=O)O)CC[C@]5(C)CC[C@@]4(C)[C@]3(C)CC[C@@H]12 : solubility (mole fraction) is 0.0114

----------
- CONDITION: in ethanol, 288.65 K
OBSERVABLE: solubility (mole fraction)
Could you keep your reply to the number by itself?

Summary for this compound, CC1(C)[C@@H](O)CC[C@]2(C)[C@H]3C(=O)C=C4[C@@H]5C[C@@](C)(C(=O)O)CC[C@]5(C)CC[C@@]4(C)[C@]3(C)CC[C@@H]12 : solubility (mole fraction) is 0.0125

----------
- CONDITION: in 1,4-dioxane, 313.15 K
OBSERVABLE: solubility (mole fraction)
Could you keep your reply to the number by itself?

Summary for this compound, CC1(C)[C@@H](O)CC[C@]2(C)[C@H]3C(=O)C=C4[C@@H]5C[C@@](C)(C(=O)O)CC[C@]5(C)CC[C@@]4(C)[C@]3(C)CC[C@@H]12 : solubility (mole fraction) is 0.0337

----------
- CONDITION: in n-propanol, 288.65 K
OBSERVABLE: solubility (mole fraction)
Could you keep your reply to the number by itself?

Summary for this compound, CC1(C)[C@@H](O)CC[C@]2(C)[C@H]3C(=O)C=C4[C@@H]5C[C@@](C)(C(=O)O)CC[C@]5(C)CC[C@@]4(C)[C@]3(C)CC[C@@H]12 : solubility (mole fraction) is 0.016

----------
- CONDITION: in methanol, 298.15 K
OBSERVABLE: solubility (mole fraction)
Could you keep your reply to the number by itself?

Summary for this compound, CC1(C)[C@@H](O)CC[C@]2(C)[C@H]3C(=O)C=C4[C@@H]5C[C@@](C)(C(=O)O)CC[C@]5(C)CC[C@@]4(C)[C@]3(C)CC[C@@H]12 : solubility (mole fraction) is 0.00373

----------
- CONDITION: in THF, 308.15 K
OBSERVABLE: solubility (mole fraction)
Could you keep your reply to the number by itself?

Summary for this molecule, CC1(C)[C@@H](O)CC[C@]2(C)[C@H]3C(=O)C=C4[C@@H]5C[C@@](C)(C(=O)O)CC[C@]5(C)CC[C@@]4(C)[C@]3(C)CC[C@@H]12 : solubility (mole fraction) is 0.0804

----------
- CONDITION: in isobutyl acetate, 303.15 K
OBSERVABLE: solubility (mole fraction)
Could you keep your reply to the number by itself?

Summary for this compound, CC1(C)[C@@H](O)CC[C@]2(C)[C@H]3C(=O)C=C4[C@@H]5C[C@@](C)(C(=O)O)CC[C@]5(C)CC[C@@]4(C)[C@]3(C)CC[C@@H]12 : solubility (mole fraction) is 0.00256

----------
- CONDITION: in n-butyl acetate, 308.15 K
OBSERVABLE: solubility (mole fraction)
Could you keep your reply to the number by itself?

Summary for this compound, CC1(C)[C@@H](O)CC[C@]2(C)[C@H]3C(=O)C=C4[C@@H]5C[C@@](C)(C(=O)O)CC[C@]5(C)CC[C@@]4(C)[C@]3(C)CC[C@@H]12 : solubility (mole fraction) is 0.0035

----------
- CONDITION: in methanol, 313.15 K
OBSERVABLE: solubility (mole fraction)
Could you keep your reply to the number by itself?

Summary for this compound, CC1(C)[C@@H](O)CC[C@]2(C)[C@H]3C(=O)C=C4[C@@H]5C[C@@](C)(C(=O)O)CC[C@]5(C)CC[C@@]4(C)[C@]3(C)CC[C@@H]12 : solubility (mole fraction) is 0.00562

----------
- CONDITION: in n-propyl acetate, 318.15 K
OBSERVABLE: solubility (mole fraction)
Could you keep your reply to the number by itself?

Summary for this compound, CC1(C)[C@@H](O)CC[C@]2(C)[C@H]3C(=O)C=C4[C@@H]5C[C@@](C)(C(=O)O)CC[C@]5(C)CC[C@@]4(C)[C@]3(C)CC[C@@H]12 : solubility (mole fraction) is 0.00284

----------
- CONDITION: in methanol, 323.15 K
OBSERVABLE: solubility (mole fraction)

Summary for this compound, CC1(C)[C@@H](O)CC[C@]2(C)[C@H]3C(=O)C=C4[C@@H]5C[C@@](C)(C(=O)O)CC[C@]5(C)CC[C@@]4(C)[C@]3(C)CC[C@@H]12 : solubility (mole fraction) is 0.00755
